From: the supplement of paper PMC6555819

# System: LXRb homodimer (NR concentration 270 nM)
# TEST: PBM binding z-score (relative to random genomic background probes); higher = stronger binding; sequences stand for … in GC…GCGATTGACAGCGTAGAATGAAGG
VALUE_TYPE: PBM binding z-score

Recorded PBM binding z-score, per entry:
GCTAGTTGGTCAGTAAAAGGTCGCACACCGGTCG
-0.0717
CCTATTAGGTGACCATAAGGGCAACCGAAGCTCG
-0.299
TCTCGGAGGACACGAAGGGTCAGAGCTCGACATC
-1.38
ATCTCTAGGTAAGACTCAGTTCAGTCAAGAACGC
0.923
CAGCCTAGGTCAGGGGCAGTATAGGAGGAACGTT
-0.805

Shifting focus to the sequence that follows.
q: Given the sequence GATGCAGGGTCAAGGCCAGAGTACGCGTATTGAT , write its reported PBM binding z-score.
a: -0.254

###

PBM binding z-score reference
# Tested on: PPARg:RXRa IVT, anti-PPARg (NR concentration 270 nM, RXRa partner concentration 90 nM)
# TEST: PBM binding z-score (relative to random genomic background probes); higher = stronger binding; sequences stand for … in GC…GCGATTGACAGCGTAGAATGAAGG
In your answer, state the number alone without any accompanying words.

Recorded PBM binding z-score, per entry:
TAGCCTAGGTCATTGGGCGAGTATAGTACGCATC
3.05
TATACAGGGTCAAAGGCCAGGGTACGAATGTCGA
4.98
TCATATAGGTATTACAGGTGAAAGTCGGCATCTA
1.69
CTCTAAAGGTCGGTTGAGGTGAGTATACGGATAA
1.04
GGAACGAGGGCATTCAAGTTGATAGCATGGCGAT
2.13

q: Given the sequence TCTAGTTGGTCAAAGTTCACACACTCGAAATGCG , write its reported PBM binding z-score.
a: 4.89

q: Given the sequence ATCTTTAGGTAAAAGTTCAGTGAATCCCGAGGAT , write its reported PBM binding z-score.
a: 3.1

q: Given the sequence CGTCCAAGGTCAATGCTAGGGCAGTGAAAGCATT , write its reported PBM binding z-score.
a: 3.52

q: Given the sequence CCGACTGGGGCTAGGTTACCATAACGCACAGCCA , write its reported PBM binding z-score.
a: 0.0447

q: Given the sequence TTACCAAGGTGAAAGGTCGTTGACGCACGCCTTG , write its reported PBM binding z-score.
a: 4.77

q: Given the sequence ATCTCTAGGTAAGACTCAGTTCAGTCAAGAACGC , write its reported PBM binding z-score.
a: 1.14

###

# System: FXR:RXRa (NR concentration 270 nM, RXRa partner concentration 90 nM)
# TEST: PBM binding z-score (relative to random genomic background probes); higher = stronger binding; sequences stand for … in GC…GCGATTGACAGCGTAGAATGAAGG
VALUE_TYPE: PBM binding z-score
In your answer, state the number alone without any accompanying words.

Recorded PBM binding z-score, per entry:
CCTACTGGGCCAAGGTCAGTGATCAGTCAAAGCA
0.749
TCGAGTAGGTTAGTGGGGGCATTCAGCCAACATA
1.28
CGAACGAGGGCGTGAGTTGATAGCAAATGCCGAT
-0.128
GCTCGTAGGACAAGGTCAGAGCTTTGTCCGTAGA
1.45
ATATGTGGGTTACATCCGGGTCATTCAGGCTATG
2.27

Shifting focus to the sequence that follows.
q: Given the sequence CCAGACAGGTGAAGGGTAACTCAGTCTGGTACGC , write its reported PBM binding z-score.
a: -0.0331
